- subject-of-test: NADPH oxidase 5 (Homo sapiens)
- run-description: NOX5-dependent H2O2 signal modulators, primary screen, NOX inhibitor project, cell-based, HEK293-NOX5, Amplex Red fluorescence (AID 1161)
- run-conditions: HEK293-NOX5, ionomycin, 45 min, higher = more signal
Field: z-score. Provide a value for each of the compounds that follow.
One number for each entry.

COc1ccc(C#Cc2ccc3c(c2)[C@]2(C(=O)N3)[C@H](C(=O)NC[C@H](O)c3ccccc3)[C@H]3C(=O)O[C@H](c4ccccc4)[C@H](c4ccccc4)N3[C@@H]2c2ccc(O)cc2)cc1 : -0.339
CC(=O)NCCCC[C@@H]1NC(=O)[C@H]2C[C@@H](C(=O)NCCCCCCNC(=O)CS)[C@@H](c3ccc(O)cc3)N2C1=O : 0.673
COCCOC(=O)N1C(=O)[C@@]2(c3cc(C#CCCO)ccc31)[C@H](C(N)=O)[C@H]1C(=O)O[C@H](c3ccccc3)[C@H](c3ccccc3)N1[C@@H]2c1ccc(O)cc1 : 0.728

Dear reader, for each entry below, please note its z-score.
1. Cc1ccc(S[C@]2(C(=O)O)CC(=O)N(C(C)C)[C@@H]2c2ccc(CO)cc2I)cc1
2. COC(=O)[C@H](Cc1ccccc1)N[C@@H](/C=C/C1CC1)[C@H](O)Cc1ccccc1
3. COc1cc2c(cc1O)C(c1cccs1)N(C)CC2 (configuration not stated)

Result string:
1: 0.852; 2: -1.41; 3: -2.33

* * *

- run-description: E. coli growth modulation, two-sided OD650, primary screen, E. coli filamentation project, strain DRC41, 24 h (AID 1093);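 further: MC1000 strain lacking acrAB efflux and sulA so SOS filamentation is blocked; test concentration not given here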
- run-conditions: OD650, 24 h, higher = more signal, called active from +8 up or from −8 down
Decide by z-score: equal to or exceeding -0.02 means YES, less means NO.

CN(C)CCCCCCNC(=O)[C@@H]1C[C@@H]2C(=O)N[C@@H](Cc3ccccc3)C(=O)N2[C@@H]1c1ccc(O)cc1 : NO
CC(C)NC(=O)[C@@]1(c2ccc([N+](=O)[O-])cc2)CC(=O)N(C2CCCCC2)[C@@H]1c1ccc(CO)cc1I : YES
CCC(CC)C(O)C1C=CC2C(=O)NC(=O)C2N1Nc1ccccn1 (centres undefined) : NO
C=C(COC)/C(=C/C[C@@H](OC(C)=O)c1ccc(OCCO)cc1)c1cnc2ccccc2c1 : YES
COCCOC(=O)N1C(=O)[C@@]2(c3cc(C#Cc4ccc(OC)cc4)ccc31)[C@H](c1ccccc1OCCO)N1[C@H](c3ccccc3)[C@H](c3ccccc3)OC(=O)[C@H]1[C@@H]2C(=O)NC[C@H](O)c1ccccc1 : YES

Query string: Reported z-score at or above -0.02? O=C(OCc1ccccc1)C1=CCC2c3[nH]c4ccccc4c3C(=O)C1N2S(=O)(=O)c1ccccc1[N+](=O)[O-] (centres undefined)
Result string: NO

Query string: Kindly determine if z-score recorded for `CN(C)CCCCCCNC(=O)[C@H]1C[C@H]2C(=O)N[C@@H](CCCCN)C(=O)N2[C@H]1c1cccc(OCCO)c1` is above or exactly -0.02.
Result string: NO

Query string: Hello, I need to know if `CCOC(=O)C1=CC[C@@H](c2ccccc2)N(S(=O)(=O)c2ccc(C)cc2)[C@H]1c1ccccc1C` has measured z-score not below -0.02. Thanks!
Result string: NO

Query string: Kindly determine if z-score recorded for `C=C(/C(=C/C[C@H](OC(C)=O)c1ccc(CO)o1)c1cc(C(=O)OC)ccc1OC)C(C)C` is above or exactly -0.02.
Result string: YES

* * *

- run-description: A549 cell viability effects, profiling panel, calcein-AM fluorescence, 48 h, basal (AID 1162); further: test concentration not given here
- run-conditions: higher = more signal
Records here are stratified by z-score; strata: bucket 1: < -0.2; bucket 2: ≥ -0.2 and < 0.2; bucket 3: ≥ 0.2

NC(=O)NCC#Cc1ccc2c(c1)[C@]1(C(=O)N2)[C@H](C(N)=O)[C@H]2C(=O)O[C@H](c3ccccc3)[C@H](c3ccccc3)N2[C@@H]1c1ccc(O)cc1 : bucket 1
C=C(CCCC)/C(=C/C[C@H](OC(C)=O)c1ccccc1OCCO)c1cc(C(=O)OC)ccc1OC : bucket 3
C=CCC(OC(C)=O)[C@@H]1[C@@H](N(Cc2ccc(-c3ccccc3)cc2)C(=O)c2ccc(-c3ccccc3)cc2)c2cc(OCCCO)ccc2N1C(=O)Cc1ccc2ccccc2c1 (stereo partly specified) : bucket 1
CCCCCN1CC=CC23O[C@@H]4/C=C\CCC(C)OC(=O)C4[C@H]2C(=O)N(C(C)CO)[C@@H]3C1=O (stereo partly specified) : bucket 3
CCc1cccc(NC(=O)O[C@H]2[C@H](OC(=O)Nc3ccccc3-c3ccccc3)[C@@H](OC(=O)Nc3ccccc3-c3ccccc3)[C@@H](OC)O[C@@H]2CO)c1 : bucket 1
COc1ccccc1CN1C(=O)c2ccccc2[C@@]2(Cc3ccccc3N(CC(C)C)C2=O)[C@@H]1c1ccc(CO)cc1 : bucket 3
COc1ccc(C#Cc2ccc3c(c2)[C@]2(C(=O)N3)[C@H](C(=O)NC[C@H](O)c3ccccc3)[C@H]3C(=O)O[C@H](c4ccccc4)[C@H](c4ccccc4)N3[C@@H]2c2ccc(O)cc2)cc1 : bucket 2
Cc1ccc(S[C@]2(C(=O)NCCCN(C)C)CC(=O)N(Cc3cc(C(F)(F)F)cc(C(F)(F)F)c3)[C@@H]2c2ccc(CO)cc2)cc1 : bucket 2

Query string: Please classify: `CC(C)N1C(=O)[C@@]2(Cc3ccccc31)c1ccccc1C(=O)N(Cc1ccccc1Cl)[C@H]2c1ccc(CO)cc1`
Result string: bucket 3

Query string: Bin this entry: `COC(=O)C(CC#Cc1ccc2c(c1)[C@]1(C(=O)N2)[C@H](C(=O)Nc2nc3ccccc3s2)[C@H]2C(=O)O[C@H](c3ccccc3)[C@H](c3ccccc3)N2[C@@H]1c1ccccc1OCCO)C(=O)OC`
Result string: bucket 1

Query string: Please classify: `C=C(CCCC)/C(=C/C[C@H](OC(=O)c1ccncc1)c1ccccc1OCCO)c1cnc2ccccc2c1`
Result string: bucket 2

* * *

- subject-of-test: Carbonic anhydrase 2 (Homo sapiens)
- run-description: CAII small-molecule binders, profiling panel, biochemical, small-molecule microarray, Alexa647-labelled CAII (AID 1122)
- run-conditions: CAII-A647 binding fluorescence, higher = more signal
Please respond with reported composite z-score for every item in the list.
One number for each entry.

Below is a list of compounds. For each, state its recorded composite z-score.
1. CCCC[C@H]1OB(O)C[C@H]2C1=C(COC)Cn1c(=O)n(-c3ccccc3)c(=O)n12
2. [N-]=[N+]=NCc1ccccc1C[C@]1(C(=O)N2CCCCC2)N=C(c2ccc(OCCCO)cc2)O[C@H]1c1ccccc1N=[N+]=[N-]
3. C=C[C@H](OC)[C@@H](OC(=O)Nc1ccc(OC)cc1)c1ccc(O)c(F)c1

Result string:
-0.185
0.593
0.562

* * *

- run-description: S. cerevisiae growth modulation with rapamycin, primary screen, strain BY4716, OD600, 96 h (AID 1091); further: test concentration not given here
- run-conditions: higher = more signal, called active from +8 up or from −8 down
endpoint: z-score
Numbers only.

O=C(CS)NCCCCCCNC(=O)[C@@H]1C[C@@H]2C(=O)NCC(=O)N2[C@@H]1c1cccc(OCCO)c1 : 0.616
CCCC[C@@H]1C[C@H]1[C@@H](NC(=O)c1cccs1)c1ccc(-c2ccccc2)cc1 : -1.24
CN(C)CCCC[C@@H]1NC(=O)[C@H]2C[C@@H](C(=O)NCCCCCCN)[C@@H](c3ccc(O)cc3)N2C1=O : -0.447
C=CCOC(=O)[C@@H]1[C@H]2C(=O)O[C@H](c3ccccc3)[C@H](c3ccccc3)N2[C@H](c2ccc(OCCOC(=O)[C@H]3C[C@H]4C(=O)N5CCC[C@H]5C(=O)N4[C@H]3c3ccc(O)cc3)cc2)[C@@]12C(=O)Nc1ccc(I)cc12 : 3.14
CC(CO)N1C(=O)[C@@H]2C3C(=O)OCCC/C=C\[C@H]3OC23C=CCN(C(C)(C)C)C(=O)[C@@H]13 (stereo partly drawn) : -0.706

Parameter requested: z-score. Apply to each item below.
1. [N-]=[N+]=NCc1ccccc1C[C@]1(C(=O)N2CCCCC2)N=C(c2ccc(OCCCO)cc2)O[C@H]1c1ccccc1N=[N+]=[N-]
2. CCOC(=O)C1=C[C@@H](C(C)(C)C)N(S(=O)(=O)c2ccc(C)cc2)[C@H]1c1ccc(F)cc1
3. C[C@H]1C2[C@H](Cc3ccccc3)NC(=O)[C@]23C(=O)N[C@H](Cc2ccccc2)C(=O)N2CCC[C@H]2C(=O)NC/C=C\C/C=C/C3[C@@H]2O[C@]12C (stereo partly drawn)
4. NC(=O)N1C(=O)C2C(C1=O)C1C=C(c3ccc(CO)cc3)C2C(c2cccs2)N1Cc1cccc(OC(F)(F)F)c1 (stereo not drawn)
5. COc1ccc(C#Cc2ccc3c(c2)[C@]2(C(=O)N3)[C@H](C(=O)Nc3nc4ccccc4s3)[C@H]3C(=O)O[C@H](c4ccccc4)[C@H](c4ccccc4)N3[C@@H]2c2ccc(O)cc2)cc1
6. [N-]=[N+]=Nc1ccccc1[C@H]1OC(c2ccc(OCCCO)cc2)=N[C@@]1(CCS(=O)(=O)c1ccccc1)C(N)=O

Result string:
1. 6.08
2. 1.92
3. -1.19
4. 3.82
5. 0.172
6. 0.372

State recorded z-score for all listed compounds.
1. COCCOC(=O)N1C(=O)[C@@]2(c3cc(C#CC4(O)CCCCCC4)ccc31)[C@H](c1ccc(OCCO)cc1)N1[C@H](c3ccccc3)[C@H](c3ccccc3)OC(=O)[C@H]1[C@@H]2C(=O)N1CCN(c2ncccn2)CC1
2. CC(C)CNC(=O)[C@@]1(Cc2ccccc2I)c2ccccc2C(=O)N(C2CCCCC2)[C@H]1c1ccc(CO)cc1
3. CN(C)C(=O)[C@@]1(CCS(=O)(=O)c2ccccc2)COC(c2ccc(OCCCO)cc2)=N1

Result string:
6.24
0.153
0.546
